Each record here notes measured Zones of growth inhibition of S. aureus (ATCC 25923), areas of partial inhibition.
- System: S. aureus (ATCC 25923)
- TEST PROTOCOL: microbe, parasite or virus in culture
- Assay type: cell-based, Staphylococcus aureus
- ASSAY CONDITIONS: 24 h, 37° C.

Query: Any idea what its Zones of growth inhibition of S. aureus (ATCC 25923), areas of partial inhibition is? The compound is CSSc1cccc([N+](=O)[O-])c1 [Compound 43a, Methyl m-nitrophenyl Disulfide]
Result: 27 (36) mm

Query: Any idea what its Zones of growth inhibition of S. aureus (ATCC 25923), areas of partial inhibition is? The compound is CCC(C)SSc1cccc([N+](=O)[O-])c1 (stereo not shown) [Compound 43d, s-Butyl m-nitrophenyl Disulfide]
Result: 25 (45) mm

Query: Any idea what its Zones of growth inhibition of S. aureus (ATCC 25923), areas of partial inhibition is? The compound is CCC(C)SSc1ccccc1[N+](=O)[O-] (stereo not shown) [Compound 44d, s-Butyl o-nitrophenyl Disulfide]
Result: 15 (24) mm

Query: Any idea what its Zones of growth inhibition of S. aureus (ATCC 25923), areas of partial inhibition is? The compound is CC(C)SSc1ccccc1[N+](=O)[O-] [Compound 44c, Isopropyl o-nitrophenyl Disulfide]
Result: 17 (31) mm

Query: Any idea what its Zones of growth inhibition of S. aureus (ATCC 25923), areas of partial inhibition is? The compound is CCSSc1ccccc1[N+](=O)[O-] [Compound 44b]
Result: 29(40) mm

---
Query: Any idea what its Zones of growth inhibition of S. aureus (ATCC 25923), areas of partial inhibition is? The compound is CC(C)SSc1cccc([N+](=O)[O-])c1 [Compound 43c, Isopropyl m-nitrophenyl Disulfide]
Result: 55 (85) mm

Query: Any idea what its Zones of growth inhibition of S. aureus (ATCC 25923), areas of partial inhibition is? The compound is CSSc1ccccc1[N+](=O)[O-] [Compound 44a, Methyl o-nitrophenyl Methyl Disulfide]
Result: 34(37) mm
